Exercise: for every item that follows, state its recorded binding signal.
# system under test: TDP-43 (Homo sapiens, UniProt Q13148 1-414)
# Sequence (Q13148 whole entry): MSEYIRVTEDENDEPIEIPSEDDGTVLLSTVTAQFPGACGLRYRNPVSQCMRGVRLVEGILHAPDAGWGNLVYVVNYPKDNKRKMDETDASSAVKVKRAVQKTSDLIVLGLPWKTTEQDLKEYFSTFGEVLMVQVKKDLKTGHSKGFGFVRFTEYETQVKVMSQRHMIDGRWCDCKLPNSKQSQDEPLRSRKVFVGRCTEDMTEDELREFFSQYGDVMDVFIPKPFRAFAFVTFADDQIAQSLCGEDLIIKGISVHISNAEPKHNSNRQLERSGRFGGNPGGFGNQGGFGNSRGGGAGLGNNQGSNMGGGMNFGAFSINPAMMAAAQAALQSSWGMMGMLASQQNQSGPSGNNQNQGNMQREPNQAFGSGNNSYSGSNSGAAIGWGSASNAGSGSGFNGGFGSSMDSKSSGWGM
# protocol: RNA Bind-n-Seq with designed 260-mer pool; 25 mM Tris-HCl, 150 mM KCl, 3 mM MgCl2, BSA (printed 500 mg/mL), 20 units/mL SUPERase IN; pH not stated; 500 nM RNA pool, 1 h, 4 C; TDP-43 5, 50, 500 nM; high values mean tight binding
# condition set: protein: recombinant; tags: SBP (GST cleaved off with PreScission; pGEX-GST-SBP)
In all, about 9,900 sequences were measured (“r (bound/input frequency ratio)”: median about 0.7, highest 2% from about 6.5 on). Shown is part of a subset that was picked to be rich in the highest values.

Field request: binding signal | item: ENSMUSG00000061578.1483|Ksr2 (ssRNA) RNA: GGGAGUUCUACAGUCCGACGAUCGCUUCGAUAUCCGCAUGCUAUAGGUGGGUGGAUGCAUAGGCAAGUAGAUGAAUGAAUAUGUGGGUAGAAGGGUGAGUGGGUGGAUGAAUGGAUGGAUAGGUUGGUAGGUUAAUGUAUUCGUGGAUGGGUGAAUGGAUGGAUGGAUAGAUAGAUGGGAAGGUGGAUGGACAGAUGGAUGGAUGGAUAGAUAGAUGGACAGGUGGUUGGUGGAUAAAUGAGUGAAUGAUUAUGUUGAUAGAUAUGUGGGUAGGCUGAAUGGGUGAAUGGAUAGAUCGAUGACCUCUUGCGGUCGCACUAGUGUGGAAUUCUCGGGUGUCAAGG
4.53 R (bound/input frequency ratio)

Field request: binding signal | item: ENSMUSG00000061578.1478|Ksr2 (ssRNA) RNA: GGGAGUUCUACAGUCCGACGAUCGCUUCGAUAUCCGCAUGCUAGAUUUGUGAAUGAAUGGAUGAAUGGAUGGGUAGGUGGGUGGAUGCAUAGGCAAGUAGAUGAAUGAAUAUGUGGGUAGAAGGGUGAGUGGGUGGAUGAAUGGAUGGAUAGGUUGGUAGGUUAAUGUAUUCGUGGAUGGGUGAAUGGAUGGAUGGAUAGAUAGAUGGGAAGGUGGAUGGACAGAUGGAUGGAUGGAUAGAUAGAUGGACAGGUGGUUGGUGGAUAAAUGAGUGAAUGAUUAUGUUGAUAGAUAUGUGGGUAGCUCUUGCGGUCGCACUAGUGUGGAAUUCUCGGGUGUCAAGG
4.77 R (bound/input frequency ratio)

Field request: binding signal | item: ENSMUSG00000061578.1480|Ksr2 (ssRNA) RNA: GGGAGUUCUACAGUCCGACGAUCGCUUCGAUAUCCGCAUGCUAAAUGGAUGAAUGGAUGGGUAGGUGGGUGGAUGCAUAGGCAAGUAGAUGAAUGAAUAUGUGGGUAGAAGGGUGAGUGGGUGGAUGAAUGGAUGGAUAGGUUGGUAGGUUAAUGUAUUCGUGGAUGGGUGAAUGGAUGGAUGGAUAGAUAGAUGGGAAGGUGGAUGGACAGAUGGAUGGAUGGAUAGAUAGAUGGACAGGUGGUUGGUGGAUAAAUGAGUGAAUGAUUAUGUUGAUAGAUAUGUGGGUAGGCUGAAUGGGUGCUCUUGCGGUCGCACUAGUGUGGAAUUCUCGGGUGUCAAGG
7.65 R (bound/input frequency ratio)

Field request: binding signal | item: ENSMUSG00000061578.1486|Ksr2 (ssRNA) RNA: GGGAGUUCUACAGUCCGACGAUCGCUUCGAUAUCCGCAUGCUAGGCAAGUAGAUGAAUGAAUAUGUGGGUAGAAGGGUGAGUGGGUGGAUGAAUGGAUGGAUAGGUUGGUAGGUUAAUGUAUUCGUGGAUGGGUGAAUGGAUGGAUGGAUAGAUAGAUGGGAAGGUGGAUGGACAGAUGGAUGGAUGGAUAGAUAGAUGGACAGGUGGUUGGUGGAUAAAUGAGUGAAUGAUUAUGUUGAUAGAUAUGUGGGUAGGCUGAAUGGGUGAAUGGAUAGAUCGAUGACUGGAUGGAGGGUGGGUGACUCUUGCGGUCGCACUAGUGUGGAAUUCUCGGGUGUCAAGG
5.39 R (bound/input frequency ratio)
